B1: PTPRD (parent)
chain: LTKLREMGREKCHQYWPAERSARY

- Variants of: B1
- test-protocol: protein stability index of a GFP-peptide fusion (GPS, HEK-293T) (PSI 1-6); higher = more stable;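 further: lentivirally expressed fusions sorted by FACS into six bins by GFP to DsRed ratio, PSI derived from sequencing read proportions per bin multiplied by bin number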
- conditions: c terminus: a fixed tail appended
Reported protein stability index is given for each of the following variants.
Lab note: record just the number, no unit beside it.

Examples with answers:
R9H = 2.73
R23N = 2.24
A22T = 3.02
H13V = 2.02
A22S = 2.16

Ask: Check the records and state protein stability index for L1V
Reply: 2.39

Ask: Report protein stability index, nothing else, for this variant: L4Y
Reply: 2.63

Ask: Identify the reported protein stability index for the following entry. S21T
Reply: 2.77

Ask: State its protein stability index for this variant: S21L
Reply: 1.96

Ask: Return the recorded protein stability index value; entry: K3E
Reply: 3.3

Ask: Read the entry H13Y and write its reported protein stability index.
Reply: 2.38

Ask: Using the record for E6M , state its measured protein stability index.
Reply: 2.18

Ask: Return the recorded protein stability index value; entry: R23M
Reply: 1.69

Ask: Answer with the recorded protein stability index of G8Y only.
Reply: 2.03

Ask: In one line, give reported protein stability index of the entry K11G .
Reply: 2.61

Ask: Note down protein stability index recorded for R23W
Reply: 1.68
